// provenance: ChEMBL document CHEMBL1649574

Tested on: Staphylococcus aureus
Assay: Antimicrobial activity against SCCmec type III vancomycin-intermediate Staphylococcus aureus isolate gz06051 by agar dilution method
Format: functional
REPORTED METRIC: MIC (µg/mL)

1. Nc1nc(/C(=N/O)C(=O)N[C@@H]2C(=O)N3C(C(=O)O)=C(/C=C4\CCN([C@@H]5CCNC5)C4=O)CS[C@H]23)ns1    2
2. C[C@H]1COc2c(N3CCN(C)CC3)c(F)cc3c(=O)c(C(=O)O)cn1c23.C[C@H]1COc2c(N3CCN(C)CC3)c(F)cc3c(=O)c(C(=O)O)cn1c23.O    64
3. CC[C@H]1OC(=O)[C@H](C)[C@@H](O[C@H]2C[C@@](C)(OC)[C@@H](O)[C@H](C)O2)[C@H](C)[C@@H](O[C@@H]2O[C@H](C)C[C@H](N(C)C)[C@H]2O)[C@](C)(O)C[C@@H](C)C(=O)[C@H](C)[C@@H](O)[C@]1(C)O    0.25

----------
Tested on: Staphylococcus aureus
Experiment: Antimicrobial activity against SCCmec type III vancomycin-intermediate Staphylococcus aureus isolate gz06051 by agar dilution method
Format: functional
REPORTED METRIC: MIC

1. CC[C@H]1OC(=O)[C@H](C)[C@@H](O[C@H]2C[C@@](C)(OC)[C@@H](O)[C@H](C)O2)[C@H](C)[C@@H](O[C@@H]2O[C@H](C)C[C@H](N(C)C)[C@H]2O)[C@](C)(OC)C[C@@H](C)C(=O)[C@H](C)[C@@H](O)[C@]1(C)O    64 µg/mL
2. CN(C)c1cc(NC(=O)CNC(C)(C)C)c(O)c2c1C[C@H]1C[C@H]3[C@H](N(C)C)C(O)=C(C(N)=O)C(=O)[C@@]3(O)C(O)=C1C2=O    0.25 µg/mL
3. CO[C@H]1/C=C/O[C@@]2(C)Oc3c(C)c(O)c4c(O)c(c(/C=N/N5CCN(C)CC5)c(O)c4c3C2=O)NC(=O)/C(C)=C\C=C\[C@H](C)[C@H](O)[C@@H](C)[C@@H](O)[C@@H](C)[C@H](OC(C)=O)[C@@H]1C    > 256 µg/mL

----------
Tested on: Staphylococcus aureus
Assay: Antimicrobial activity against heterogeneous vancomycin-intermediate Staphylococcus aureus assessed as growth inhibition at 2 times MIC
Assay type: functional
Parameters: scale not given: the % may be the effect or the level left
REPORTED METRIC: Activity (%)

1. CCCCCCCCCC(=O)N[C@@H](Cc1c[nH]c2ccccc12)C(=O)N[C@H](CC(N)=O)C(=O)N[C@@H](CC(=O)O)C(=O)N[C@@H]1C(=O)NCC(=O)N[C@@H](CCCN)C(=O)N[C@@H](CC(=O)O)C(=O)N[C@H](C)C(=O)N[C@@H](CC(=O)O)C(=O)NCC(=O)N[C@H](CO)C(=O)N[C@@H]([C@H](C)CC(=O)O)C(=O)N[C@@H](CC(=O)c2ccccc2N)C(=O)O[C@@H]1C    100
2. CN(C)c1cc(NC(=O)CNC(C)(C)C)c(O)c2c1C[C@H]1C[C@H]3[C@H](N(C)C)C(O)=C(C(N)=O)C(=O)[C@@]3(O)C(O)=C1C2=O    100
3. Nc1nc(/C(=N/O)C(=O)N[C@@H]2C(=O)N3C(C(=O)O)=C(/C=C4\CCN([C@@H]5CCNC5)C4=O)CS[C@H]23)ns1    96.3
4. CC(=O)NC[C@H]1CN(c2ccc(N3CCOCC3)c(F)c2)C(=O)O1    100
5. CN[C@H](CC(C)C)C(=O)N[C@H]1C(=O)N[C@@H](CC(N)=O)C(=O)N[C@H]2C(=O)N[C@H]3C(=O)N[C@H](C(=O)N[C@H](C(=O)O)c4cc(O)cc(O)c4-c4cc3ccc4O)[C@H](O)c3ccc(c(Cl)c3)Oc3cc2cc(c3O[C@@H]2O[C@H](CO)[C@@H](O)[C@H](O)[C@H]2O[C@H]2C[C@](C)(N)[C@H](O)[C@H](C)O2)Oc2ccc(cc2Cl)[C@H]1O    96.3
